# TARGET OF ASSAY: T1, IFN-αC (human, UniProt P01566 24-189)
# T1 construct: also called IFN-α10; alpha C
# TEST SUMMARY: ProteOn, one antigen concentration
METRIC NAME: Kd (nM)

[
  {
    "BINDER": "IFWM3361 (antibody, V domains shown, VH IFWH624, VL IFWL1051; converted mAb; also called IFWB3096) VH: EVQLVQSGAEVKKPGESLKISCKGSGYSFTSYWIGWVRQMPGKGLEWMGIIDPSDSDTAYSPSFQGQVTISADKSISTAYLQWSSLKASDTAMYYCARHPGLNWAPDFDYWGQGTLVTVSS VL: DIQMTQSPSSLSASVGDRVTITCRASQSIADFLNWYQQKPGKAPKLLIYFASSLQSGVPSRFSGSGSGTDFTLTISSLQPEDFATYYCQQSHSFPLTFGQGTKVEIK",
    "ENDPOINT VALUE": 0.101
  },
  {
    "BINDER": "IFWM3322 (antibody, V domains shown, VH IFWH591, VL IFWL1051; converted mAb; also called IFWB3057) VH: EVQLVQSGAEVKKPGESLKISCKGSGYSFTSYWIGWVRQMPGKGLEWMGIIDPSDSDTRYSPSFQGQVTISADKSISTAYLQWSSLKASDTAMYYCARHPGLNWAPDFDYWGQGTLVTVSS VL: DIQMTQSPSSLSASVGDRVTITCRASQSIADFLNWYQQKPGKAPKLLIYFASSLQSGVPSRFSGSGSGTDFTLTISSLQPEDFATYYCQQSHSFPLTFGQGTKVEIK",
    "ENDPOINT VALUE": 0.042
  },
  {
    "BINDER": "IFWM3307 (antibody, V domains shown, VH IFWH591, VL IFWL1001; converted mAb; also called IFWB3042) VH: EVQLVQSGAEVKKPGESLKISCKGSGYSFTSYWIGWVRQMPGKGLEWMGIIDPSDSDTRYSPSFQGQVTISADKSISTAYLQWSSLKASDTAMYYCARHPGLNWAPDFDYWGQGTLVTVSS VL: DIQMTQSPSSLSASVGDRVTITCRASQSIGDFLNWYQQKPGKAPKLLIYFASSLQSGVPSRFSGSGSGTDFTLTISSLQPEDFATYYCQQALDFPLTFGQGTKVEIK",
    "ENDPOINT VALUE": 0.062
  }
]
